# credit: patent US20150299265A1

Molecular target: Human HER2 expressed on tumour cells (human, UniProt P04626 23-1255)
Experiment: cell-based or functional assay
Label 1.0 when IC50 [nM], inhibition of BT474 cell proliferation (BrdU) < 3 nM; otherwise 0.0.

Look over these answered cases.
| binder | group |
| --- | --- |
| DARPin #36 (designed binder) MRGSHHHHHHGSDLGIKLLFAAAKGQDDEVRILLAAGADVNAKDFEGYTPLHVAAYDGHLEIVEVLLKAGADVNAKDSQGRTPLHEAAYSGHLEIVEVLLKAGADVNAQDDAGETPADLAAAWGHEDIAEVLQKLGGGGSGGGGSRSDLGAKLLVAATSGQDDEVRILLAAGADVNAKDRIGFTPLHRAAFVGHLEIVEVLLKAGADVNAQDDFGHTPADLAASLGHEDIAEVLQKLN | 1.0 |
| DARPin #32 (designed binder) MRGSHHHHHHGSDLGIKLLFAASRGQDDEVRILLAAGADVNAKDFEGITPLHAAARSGHLEIVEVLLKAGADVNAKDVEGWTPLHYAASYGHLEIVEVLLKAGADVNAQDNHGATPADLAAQWGHEDIAEVLQKLGGGGSGGGGSRSDLGIKLLQAANLGQDDEVRILLATGADVNAKDSIGQTPLHWAARRGHLEIVEVLLKAGADVNAKDEYGVTPLHLAASLGHLEIVEVLLKAGADVNAQDESGETPADLAALHGHEDIAEVLQKLN | 0.0 |
| DARPin #68 (designed binder) MRGSHHHHHHGSDLGAKLLSDLGVKLLWAAARGQDDEVRILLAAGADVNAKDFQGITPLHIAAQSGHLEIVEVLLKAGADVNAKDVTGDTPLHLAAQHGHLVIVEVLLKAGADVNAQDERGWTPADLAADWGHEDIAEVLQKAAGSPTPTPTTPTPTPTTPTPTPTGSDLGKKLLEAARAGQDDEVRILMANGADVNAKDEYGLTPLYLATAHGHLEIVEVLLKNGADVNAVDAIGFTPLHLAAFIGHLEIAEVLLKHGADVNAQDKFGKTAFDISIGNGNEDLAEILQKAA | 0.0 |
| DARPin #66 (designed binder) MRGSHHHHHHGSDLGAKLLSDLGVKLLWAAARGQDDEVRILLAAGADVNAKDFQGITPLHIAAQSGHLEIVEVLLKAGADVNAKDVTGDTPLHLAAQHGHLVIVEVLLKAGADVNAQDERGWTPADLAADWGHEDIAEVLQKAAGSDLGKKLLEAARAGQDDEVRILMANGADVNAKDEYGLTPLYLATAHGHLEIVEVLLKNGADVNAVDAIGFTPLHLAAFIGHLEIAEVLLKHGADVNAQDKFGKTAFDISIGNGNEDLAEILQKAA | 0.0 |

Consider the additional binder presented here.
A record lists DARPin #38 (designed binder) MRGSHHHHHHGSDLGHKLLEAAVAGQDDEVRILLAAGADVNAKDWYGKTPLHFAAGLGHLEIVEVLLKAGADVNAKDEDGQTPLHLAAAYGHLEIVEVLLKAGADVNAQDNDGFTPADLAADSGHEDIAEVLQKLGGGGSGGGGSRSDLGIKLLQAANLGQDDEVRILLATGADVNAKDSIGQTPLHWAARRGHLEIVEVLLKAGADVNAKDEYGVTPLHLAASLGHLEIVEVLLKAGADVNAQDESGETPADLAALHGHEDIAEVLQKLN . Is its IC50 [nM], inhibition of BT474 cell proliferation (BrdU) below 3 nM?
0.0
